All figures here come from ChEMBL document CHEMBL5604062.

Please respond with reported log10(IC50) for every item in the list.
target: Nonstructural protein 3 (Zika virus); assay: Functional biochemical assay to identify treatments for viral infectious disease that targets Zika NS2B-NS3 protease. Utilizing a direct enzyme activity measurement method, reading the fluorescence intensity is used to characterize the relative potency of inhibitors as IC50.; set-up: species or system PRVABC59
Please keep in mind that the values are log10 of IC50 expressed in µM.

For orientation, consider the following solved cases.
# Structure notation, Reported measurement
records = [
    ("Cn1ncc2c(C(=O)Nc3ccc4c(c3)CNC4)cc(Br)cc21", -0.56),
    ("O=C(Nc1cc(Cl)cc(-c2ccc3nc(C(=O)O)ncc3c2)c1)OCc1ccccc1", 1.39),
    ("NCc1cccc(NC(=O)c2cc(Br)cc(-n3cnnn3)c2)c1", 0.85),
    ("O=C(Nc1cc(Cl)cc([C@H](Nc2cccc(-c3nn[nH]n3)c2)C(=O)NCc2ccccc2)c1)OCc1ccccc1", 1.11),
]

Measured on Nonstructural protein 3 (Zika virus), `Cn1cc(-c2cc(CN)cc([C@@H]3C[C@H]3c3cc(Cl)cc(NC(=O)OCc4ccccc4)c3)c2)cn1` has a documented log10(IC50) of 1.12

----------
Task for the reader: assign each of the following compounds its reported IC50.
target: UniProt:A0A024AXB9; assay: Functional biochemical assay to identify treatments for viral infectious disease that targets Zika NS2B-NS3 protease. Utilizing a direct enzyme activity measurement method, reading the fluorescence intensity is used to characterize the relative potency of inhibitors as IC50.; parameters: species or system PRVABC59

Record excerpt, results attached:
# Structure notation, Reported measurement
data = [
    ("COc1ccc([C@H]2C[C@H](C)CN2C(=O)Nc2ccc3c(c2)CNC3)cc1", "> 25 µM"),
    ("N=C(N)NCc1ccc(OC(=O)Nc2ccccc2)cc1", "> 100 µM"),
    ("C=C[C@H]1NCc2cc(NC(=O)c3cc(F)cc4[nH]ncc34)ccc21", "0.359 µM"),
    ("CCc1cc(COc2ccc(S(=O)(=O)Nc3ccc(Cl)cc3C(=O)O)cc2)no1", "> 99.5 µM"),
    ("O=C(Nc1ccc2c(c1)CNC2)c1ccc2ncsc2c1", "0.997 µM"),
]

Go through the list and state IC50 for each entry.
1. O=C(Nc1ccc2c(c1)CNC2)c1cc(O)nc(C2CC2)c1
2. NCc1cccc(NC(=O)[C@@H](NC(=O)OCc2ccccc2)c2ccc(-c3ccnc(N)c3)cc2)c1
3. O=C(O)c1nscc1NS(=O)(=O)c1ccc(Oc2ccccc2Cl)cc1
4. O=S(=O)(c1cccs1)N1CCN(CC=Cc2ccccc2)CC1
5. CCn1cc(-c2ccncc2F)nc(N2CC[C@@H](CO)C2)c1=O
6. NCc1cccc(NC(=O)[C@]2(NC(=O)OCc3ccccc3)COc3cc(Br)ccc32)c1

RESULT:
1. 7.58 µM
2. > 99.5 µM
3. > 99.5 µM
4. > 99.5 µM
5. > 99.5 µM
6. > 99.5 µM

----------
What pIC50 was measured for each of the following?
biological target: Nonstructural protein 3 (Zika virus, UniProt A0A024AXB9); assay: Functional biochemical assay to identify treatments for viral infectious disease that targets Zika NS2B-NS3 protease. Utilizing a direct enzyme activity measurement method, reading the fluorescence intensity is used to characterize the relative potency of inhibitors as IC50.; parameters: species or system PRVABC59
Sequence (A0A024AXB9 whole entry): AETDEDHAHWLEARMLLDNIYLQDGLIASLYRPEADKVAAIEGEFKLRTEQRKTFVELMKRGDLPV
pIC50: −log10 of the molar value.

Batch of 8 molecules: report pIC50 for each.
1. O=C(Nc1ccc2c(c1)C(=O)OC2)c1ccc2c(c1)CNC2
2. O=C(c1cc(Cl)ccc1NS(=O)(=O)c1ccc(Oc2ccccc2Cl)cc1)N1CC[C@H](CO)C1
3. c1cc(CN2CCC(c3cscn3)CC2)[nH]n1
4. N#C[C@H](Nc1cccc(C(=O)O)c1)c1cc(Cl)cc2[nH]ncc12
5. O=C(Nc1cccnc1)c1cc(Cl)ccc1NS(=O)(=O)c1ccc(Oc2ccccc2Cl)cc1
6. O=C(O)c1cc2cc(-c3cc(Cl)cc4c3CCNC4=O)ccc2[nH]1
7. CN1CCn2nc(NC(=O)c3cc(Cl)cc(NC(=O)OCc4ccccc4)c3)cc2C1
8. O=C1Nc2ncccc2C[C@H]1NCc1n[nH]c2ccccc12

RESULT:
1: < 4.60; 2: < 4.00; 3: < 4.00; 4: < 4.00; 5: < 4.00; 6: < 4.00; 7: < 4.00; 8: < 4.00

Batch request: pIC50 per item, same order as input.
1. CNCc1cccc(NC(=O)c2cc(Cl)cc3[nH]ncc23)c1
2. NCc1cccc(NC(=O)[C@@H](NC(=O)OCc2ccccc2)c2cccc(-c3ccc(CN)cc3F)c2)c1
3. NCc1cccc(NC(=O)[C@@H](NC(=O)OCc2ccccc2)c2ccc(-c3cccnc3F)cc2)c1
4. O=C(Nc1cccc(-c2nnn[nH]2)c1)c1ccc(-c2cccnc2)s1
5. O=C(Nc1cc([C@H]2CCOC2)ccn1)c1cc(F)c2[nH]ccc2c1
6. Clc1ccc2[nH]cc(Cc3ccc4c(c3)CNC4)c2c1

RESULT:
[5.32, 4.49, 4.35, "< 4.00", "< 4.60", "< 4.00"]
